SUBJECT_OF_TEST: Rho-associated protein kinase 2 (Homo sapiens) (UniProt O75116)
Sequence (O75116 whole entry, looked up): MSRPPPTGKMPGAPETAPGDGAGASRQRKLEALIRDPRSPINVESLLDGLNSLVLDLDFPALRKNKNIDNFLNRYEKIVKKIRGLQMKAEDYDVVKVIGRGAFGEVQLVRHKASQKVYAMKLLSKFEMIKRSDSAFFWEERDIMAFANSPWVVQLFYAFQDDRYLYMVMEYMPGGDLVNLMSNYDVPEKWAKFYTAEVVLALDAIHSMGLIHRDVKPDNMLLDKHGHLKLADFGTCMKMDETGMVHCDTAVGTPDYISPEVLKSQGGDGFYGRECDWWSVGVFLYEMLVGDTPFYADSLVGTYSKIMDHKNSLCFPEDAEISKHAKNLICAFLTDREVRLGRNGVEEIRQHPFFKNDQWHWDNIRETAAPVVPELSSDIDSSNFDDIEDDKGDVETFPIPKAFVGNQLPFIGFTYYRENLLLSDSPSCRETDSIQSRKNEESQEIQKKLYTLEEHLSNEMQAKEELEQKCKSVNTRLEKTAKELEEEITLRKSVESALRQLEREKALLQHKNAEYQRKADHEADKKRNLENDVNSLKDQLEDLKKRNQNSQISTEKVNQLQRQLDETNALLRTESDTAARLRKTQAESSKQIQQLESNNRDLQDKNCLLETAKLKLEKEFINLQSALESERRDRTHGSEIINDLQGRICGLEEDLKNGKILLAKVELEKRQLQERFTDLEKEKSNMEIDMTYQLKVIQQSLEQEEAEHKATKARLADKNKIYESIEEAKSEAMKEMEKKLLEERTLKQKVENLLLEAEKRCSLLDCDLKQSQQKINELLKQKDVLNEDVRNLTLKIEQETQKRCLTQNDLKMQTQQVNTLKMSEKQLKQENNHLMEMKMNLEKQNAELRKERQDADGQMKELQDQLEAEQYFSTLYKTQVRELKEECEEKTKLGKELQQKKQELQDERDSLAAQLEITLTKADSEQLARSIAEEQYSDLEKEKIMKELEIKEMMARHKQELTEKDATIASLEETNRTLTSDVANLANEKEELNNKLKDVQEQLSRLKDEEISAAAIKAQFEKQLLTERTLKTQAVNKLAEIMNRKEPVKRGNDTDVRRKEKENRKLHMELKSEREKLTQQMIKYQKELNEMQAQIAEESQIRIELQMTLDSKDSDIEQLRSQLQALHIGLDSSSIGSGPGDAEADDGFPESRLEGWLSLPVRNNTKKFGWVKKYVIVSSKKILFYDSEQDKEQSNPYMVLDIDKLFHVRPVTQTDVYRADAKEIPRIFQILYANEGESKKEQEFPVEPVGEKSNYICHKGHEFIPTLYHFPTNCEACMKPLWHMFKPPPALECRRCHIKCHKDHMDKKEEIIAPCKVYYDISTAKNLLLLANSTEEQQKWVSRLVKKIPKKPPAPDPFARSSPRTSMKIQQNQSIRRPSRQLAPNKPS
RECORDED_CONDITIONS: at 1 µM
Description: GSK_PKIS: ROCK2 mean inhibition at 1 uM [Nanosyn]
MEASUREMENT_NAME: inhibition (%)
One number for each entry, in %.

Known inhibition results, listed for orientation:
FC(F)(F)CNc1nccc(-c2cnn3ncccc23)n1 :: 0.94
CNC(=O)c1ncccc1Nc1nc(Nc2cc3c(cc2OC)CCCN3C(=O)CN(C)C)nc2[nH]ccc12 :: 8.67
NC(=O)c1ccc2c(-c3ccnc(NCCCO)n3)c(-c3ccc(F)cc3)nn2c1 :: 5.31
COC(=O)Nc1nc2ccc(Oc3ccc(NC(=O)Nc4cc(C(F)(F)F)ccc4F)cc3)cc2s1 :: 1.17
N#Cc1cccc(Nc2ncc(-c3ccccc3)o2)c1 :: 6.5
COc1ccc2ncn(-c3cc(O[C@H](C)c4ccccc4C(F)(F)F)c(C(N)=O)s3)c2c1 :: -0.4
CN(C)CCNC(=O)Nc1ccc(N(C)c2ccnc(Nc3ccc(CS(C)(=O)=O)cc3)n2)cc1 :: 24
CC(C)c1ccc(-c2cc(-c3c[nH]nc3-c3ccccn3)ccn2)cc1 :: 1.63

Quick one: give me inhibition for each item below, same order please.
1. CNC(=O)c1sc(-n2cnc3cc(OC)c(OC)cc32)cc1OCc1ccccc1C(F)(F)F
2. CS(=O)(=O)Nc1ccc(-c2cc(-c3ccccc3)cc(C(N)=O)c2N)cc1
3. COc1cccc(-n2ncc3c(N/N=C/c4ccc(C(=O)NCCN(C)C)cc4)ncnc32)c1

1. 1.36
2. 1.85
3. 9.45
